Cited source for all entries: paper PMC9414676

molecular target: hH3R (Homo sapiens, UniProt Q9Y5N1)
Sequence (Q9Y5N1 whole entry): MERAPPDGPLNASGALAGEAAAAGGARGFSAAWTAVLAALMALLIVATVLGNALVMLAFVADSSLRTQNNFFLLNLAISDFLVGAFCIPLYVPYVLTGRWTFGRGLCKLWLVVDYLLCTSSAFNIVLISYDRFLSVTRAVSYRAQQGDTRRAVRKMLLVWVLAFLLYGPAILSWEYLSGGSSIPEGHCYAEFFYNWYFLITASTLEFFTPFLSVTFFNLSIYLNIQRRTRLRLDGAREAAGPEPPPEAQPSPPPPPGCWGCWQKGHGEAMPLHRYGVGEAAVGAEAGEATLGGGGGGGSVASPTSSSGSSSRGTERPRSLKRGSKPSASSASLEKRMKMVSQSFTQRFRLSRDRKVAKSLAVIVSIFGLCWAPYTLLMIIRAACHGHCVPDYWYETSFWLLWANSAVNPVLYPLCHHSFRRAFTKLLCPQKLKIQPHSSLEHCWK
Experimental endpoint: Ki (nM)
Numeric only. Scale: nM

Q: Enter recorded Ki with hH3R (Homo sapiens, UniProt Q9Y5N1) for COc1ccccc1N1CCN(CCCCNC(=O)c2ccc3cc(OCCCN4CCCCC4)ccc3c2)CC1 [ST-2223] here.
Ans: 4.6
